target: GDP-bound KRAS protein (aa 1-169), containing both G12C and C118A amino acid substitutions (Homo sapiens (Human), UniProt P01116, C118A/G12C); assay: Coupled Nucleotide Exchange Assay; assay type: biochemical; conditions: read-out: Coupled Exchange IC50 (20 h); 20 h compound pre-incubation
Sequence (P01116 other isoform, or with tags, fused parts or gaps G12C/C118A): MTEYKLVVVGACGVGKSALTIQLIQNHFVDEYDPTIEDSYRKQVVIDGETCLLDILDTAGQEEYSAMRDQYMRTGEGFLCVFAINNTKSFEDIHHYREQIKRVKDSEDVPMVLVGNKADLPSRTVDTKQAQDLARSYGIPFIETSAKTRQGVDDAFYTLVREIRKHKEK
IC50 less than 900 nM is MET; IC50 greater than or equal to 900 nM is NOT MET.

chemicalString: C=CC(=O)N1CC(NC(=O)Cn2cc(-c3cccc4ccccc34)c3cc(Br)cc(C)c32)C1
className: NOT MET

chemicalString: C=CC(=O)N1CC(NC(=O)Cn2c3ccccc3c3c(Br)cccc32)C1
className: MET

chemicalString: C=CC(=O)N1CC(NC(=O)Cn2cc(C(=O)N3CCc4c(cccc4OC)C3)c3cc(Br)ccc32)C1
className: MET

chemicalString: C=CC(=O)N1CC(NC(=O)Cn2c(-c3ccncc3)cc3ccccc32)C1
className: NOT MET

chemicalString: C=CC(=O)N1CC(NC(=O)Cn2cc(-c3c(C)ccc4cn[nH]c34)c3cc(-c4c(C)ccc5cn[nH]c45)ccc32)C1
className: NOT MET

chemicalString: C=CC(=O)N1CC(NC(=O)Cn2cc(CNCc3ccccc3)c3cc(Br)ccc32)C1
className: NOT MET

chemicalString: C=CC(=O)N1CC(NC(=O)Cn2c3ccc(Br)cc3c3ccc(Oc4ccccn4)nc32)C1
className: MET

chemicalString: C=CC(=O)N1CC(NC(=O)Cn2c(C(=O)NCc3ccccc3CN(C)C)cc3cc(Br)ccc32)C1
className: MET

chemicalString: C=CC(=O)N1CC(NC(=O)Cn2c3ccc(Br)cc3c3ccncc32)C1
className: NOT MET

chemicalString: C=CC(=O)N1CC(NC(=O)Cn2ccc3cc(C4CC4)ccc32)C1
className: NOT MET

chemicalString: C=CC(=O)N1CC(NC(=O)Cn2c3ccccc3c3cc(Br)ccc32)C1
className: MET

chemicalString: C=CC(=O)N1CC(NC(=O)Cn2ccc3cc(OC)ccc32)C1
className: NOT MET

chemicalString: C=CC(=O)N1CC(NC(=O)Cn2cc(C(=O)C(=O)OCC)c3ccccc32)C1
className: NOT MET

chemicalString: C=CC(=O)N1CC(NC(=O)Cn2c3c(c4cc(Br)ccc42)CCN(C(=O)OCc2ccccc2)C3)C1
className: NOT MET

chemicalString: C=CC(=O)N1CC(NC(=O)Cn2cc(Cl)c3cc(Br)ccc32)C1
className: MET

chemicalString: C=CC(=O)N1CC(NC(=O)Cn2c(C)c(-c3ccccc3C3CC3)c3cc(Cl)ccc32)C1
className: MET
